Record form. Attribute: melting point. Fill in for each entry.
Numbers only here, please. The scale is °C.

Query block: Given "Nc1ccncn1" , respond with its melting point.
Result block: 155

Query block: Fill in melting point for record CCCC(=O)Nc1c(I)cc(I)c(CC(CC)C(=O)[O-])c1I.[Na+] (stereo unspecified)
Result block: 209

Query block: Write down melting point measured for item "O=S(=O)(Cl)c1ccc(F)cc1"
Result block: 30

Query block: Give the reported value of melting point for this record: "CCN(Cc1c(F)cccc1Cl)c1c([N+](=O)[O-])cc(C(F)(F)F)cc1[N+](=O)[O-]"
Result block: 102

Query block: Specify measured melting point for "c1ccc2scnc2c1" .
Result block: 2

Query block: Identify melting point associated with the molecule "Cc1ccc(C(C)C)c(O)c1C(=O)O"
Result block: 127

Query block: Provide melting point value for the following molecule: "CCCCCCOCCOCCO"
Result block: -40

Query block: Give melting point for "FB(F)c1ccccc1"
Result block: -36.2

Query block: Please list melting point recorded for the molecule "CC(C)CC=NO"
Result block: 48.5

Query block: Determine from records and report melting point for "Fc1c(F)c(F)c(I)c(F)c1F"
Result block: -29

Query block: Read the entry "CC(=O)OOC(C)=O" and write its reported melting point.
Result block: 30

Query block: Using the record for "COc1cc(OC)cc(C(=O)O)c1" , state its measured melting point.
Result block: 186

Query block: Fill in melting point for record "CC(C)(O)CCc1ccccc1"
Result block: 24.5

Query block: Return the recorded melting point value; entry: "Clc1cccc2cccnc12"
Result block: -20

Query block: Give me measured melting point, please, for this molecule: "Cc1cc(N)ccc1O"
Result block: 176

Query block: Name the recorded melting point of the item "CC(C)CBr" in your answer.
Result block: -119
